- ASSAY SUMMARY: Measurement of logP values by HPLC on reversed phase columns (EEC directive 79/831 Annex V.A8)
- Format: physicochemical
- CONDITION INFO: pH 2.7
PROPERTY NAME: chromatographic logP

| SMILES REPR | PROPERTY NAME | REPORTED |
| --- | --- | --- |
| CCN(C)C(=S)c1cc(-c2ncnc(Nc3cccc(S(F)(F)(F)(F)F)c3)n2)ccn1 | chromatographic logP | 3.57 |
| COCC(=O)ON=C(N)c1cc(-c2ncnc(Nc3cccc(Cl)c3)n2)ccn1 | chromatographic logP | 2.92 |
| O=C(O)c1cc(-c2ncnc(Nc3ccsc3)n2)ccn1 | chromatographic logP | 1.62 |
| CCOC(=N)c1cc(-c2ncnc(Nc3cccc(Cl)c3)n2)ccn1 | chromatographic logP | 2.08 |
| CO/N=C(\C)c1cc(-c2ncnc(Nc3cccc(Cl)c3)n2)ccn1 | chromatographic logP | 4.23 |
